- TGT: T1, human GFRα3 expressed with a C-terminal myc-myc-hexahistidine tag (human, UniProt O60609 32-374, biotinylated (sites not given) in ELISA format 2 and in the Octet cross-competition; not in SPR)
- T1 construct: also called hGFRα3-mmh; hGFRα3-mmH
- EXPERIMENT_SUMMARY: SPR, Ab captured, 25C
PROPERTY_MEASURED: t1/2 (min)

{"columns": ["BINDER", "MEASUREMENT_UNIT", "OBSERVED_VALUE"],
 "data": [
  ["H4H2357S (antibody, human IgG4, V domains shown, human IgG4 Fc (H4H)) VH: EVQLVESGGGLVQPGGSLRLSCAASTFTFSSYAMTWVRQAPGKGLEWVSSISGSGDSTYYADSVKGRFTISRDNSKNTLFLQMNSLRAEDTAVYYCAKKDGPGRYYVRYGMDVWGQGTTVTVSS VL: DIQMTQSPSSVSASVGDRVTITCRASQGISSWLAWYQQKPGKAPKLLIYTTSSLQSGVPSRFSGSGSGTDFTLTISSLQPEDFATYYCQQANSFPLTFGGGTKVDIK", "min", 21],
  ["H1M2243N (antibody, V domains shown, chimeric, human variable and mouse constant domains (H1M)) VH: QVQLVQSGAEVKKPGASVKVSCKASGYTFTSYGIIWVRQAPGQGLEWMGWISGYNGNTNYTQNLQGRVTMTTDTSTTTAYMELRSLRSDDTAVYYCARWGIATRPYYYYGMDVWGQGTTVTVSS VL: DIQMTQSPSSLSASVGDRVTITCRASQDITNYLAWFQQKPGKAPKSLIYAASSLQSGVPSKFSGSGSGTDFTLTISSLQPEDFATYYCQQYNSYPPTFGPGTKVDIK", "min", 44],
  ["H4H2236N3 (antibody, human IgG4, V domains shown, human IgG4 Fc (H4H)) VH: EVQLLESGGNLVQPGGSLRLSCAASGFTFSSYAMTWVRQAPGKGLEWVSTISGSGTSTYYADSVKGRFTISRDNSRDTVFLQMNSLRAEDTAVYYCSKPSALRFLHWLAMDVWGQGTLVTVSS VL: DIQMTQSPSSLSAFVGDRVTITCRASQDIRNYLDWFQQKPGKAPKSLIYAASNLQSGVPSRFGGSGSGTDFTLTINSLQPEDFVTYYCQQYNSYPPTFGGGTKVEIK", "min", 50],
  ["H4H2344S (antibody, human IgG4, V domains shown, human IgG4 Fc (H4H)) VH: EVQLVESGGGVVQPGRSLRLSCAASGFSFSDYVMHWVRQAPGKGLEWVASIWFDGSNEFYADSVKGRFTISRDNSKNTLFLQMNSLRAEDTAVYYCAKKGVLVATSAFDIWGQGTMVTVSS VL: DIQMTQSPSSLSASVGDRVTITCRASQSINNYLNWYHQKPGKAPKLLIYAASSLQSGVPSRFSGSGSGTDYTLTISSLQPEDFGNYYCQQSYRTSMYTFGQGTKVEIK", "min", 48],
  ["H4H2352S (antibody, human IgG4, V domains shown, human IgG4 Fc (H4H); also called H4H2352S-1) VH: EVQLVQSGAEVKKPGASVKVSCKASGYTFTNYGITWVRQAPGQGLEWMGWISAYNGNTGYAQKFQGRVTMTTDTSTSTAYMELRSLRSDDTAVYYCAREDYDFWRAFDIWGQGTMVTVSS VL: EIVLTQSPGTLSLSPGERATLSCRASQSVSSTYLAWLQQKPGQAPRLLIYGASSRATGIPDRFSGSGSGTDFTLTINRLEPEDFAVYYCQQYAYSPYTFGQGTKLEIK", "min", 199]
]}
